logP for assorted compounds
protocol.details: logP determination by HPLC on reversed-phase column (EEC Directive 79/831 Annex V.A8)
Assay type: physicochemical
measurement.conditions: Table 1 logP / m.p., C18, 43° C., acidic range (pH 2.3)

Known logP results, listed for orientation:
CC1COC(C(F)(F)F)=C(C(=O)Nc2ccccc2-c2ccc(C(F)(F)F)cc2)S1 (stereo not drawn) [Example 9]    4.06
CC1CC(C)(C)c2cccc(NC(=O)C3=C(C(F)(F)F)OCCS3)c21 (stereo not drawn) [Example 60]    4.18

Problem: Can you look up the measured logP of CC(c1ccccc1NC(=O)C1=C(C(F)(F)F)OCCS1)C1CCCCC1 (stereo not drawn) [Example 49] for me?
Solution: 4.31

Problem: What about C=CCC(C)c1ccccc1NC(=O)C1=C(C(F)(F)F)OCCS1 (stereo not drawn) [Example 34] ?
Solution: 3.33

Problem: What about CCC(C)CC(C)c1ccccc1NC(=O)C1=C(C(F)(F)F)OCCS1 (stereo not drawn) [Example 54] ?
Solution: 4.25

Problem: What about CC1CSC(C(=O)Nc2ccccc2-c2ccc(C(F)(F)F)cc2)=C(C(F)(F)F)O1 (stereo not drawn) [Example 61] ?
Solution: 4.08

Problem: What about O=C(Nc1ccccc1-c1ccc(Br)cc1)C1=C(C(F)(F)F)OCCS1(=O)=O [Example 91] ?
Solution: 3.35

----------
protocol.details: logP determination by HPLC on reversed-phase column (EEC Directive 79/831 Annex V.A8)
Format: physicochemical
measurement.conditions: reversed-phase C18 HPLC column, Table 1 logP / m.p., C18, 43° C., acidic range (pH 2.3), read-out: logP
readout.kind: chromatographic logP
# respond with the number and nothing more

Known chromatographic logP results, listed for orientation:
Cc1cc(Cl)ccc1-c1ccccc1NC(=O)C1=C(C(F)(F)F)OCCS1    4
CCCO/N=C/c1ccc(-c2ccccc2NC(=O)C2=C(C(F)(F)F)OCCS2)cc1    4.25
Cc1ccc(-c2ccccc2NC(=O)C2=C(C(F)(F)F)OCCS2)cc1Cl    3.89
O=C(Nc1ccccc1-c1ccc(F)c(Cl)c1)C1=C(C(F)(F)F)OCCS1    3.6
O=C(Nc1ccc(F)cc1-c1ccc(Cl)c(Cl)c1)C1=C(C(F)(F)F)OCCS1    3.95
Cc1cc(-c2ccccc2NC(=O)C2=C(C(F)(F)F)OCCS2)ccc1F    3.65

Problem: Can you look up the measured chromatographic logP of "O=C(Nc1ccccc1-c1ccc(Cl)c(F)c1)C1=C(C(F)(F)F)OCCS1" for me?
Solution: 3.62

Problem: What about "O=C(Nc1ccccc1-c1ccc(Cl)cc1Cl)C1=C(C(F)(F)F)OCCS1" ?
Solution: 3.82

----------
protocol.details: logP determination by HPLC on reversed-phase column (EEC Directive 79/831 Annex V.A8)
Type: physicochemical
measurement.conditions: Table 1 logP / m.p., C18, 43° C., acidic range (pH 2.3)
readout.kind: logP
# respond with the number and nothing more

CCCC(C)c1cc(F)ccc1NC(=O)C1=C(C(F)(F)F)OCCS1 (centres unmarked) [Example 52]    3.67

Problem: Can you look up the measured logP of CC1CSC(C(=O)Nc2ccccc2C2CC3CCC2C3)=C(C(F)(F)F)O1 (centres unmarked) [Example 59] for me?
Solution: 5.36

Problem: What about O=C(Nc1ccccc1-c1ccc(Cl)c(Cl)c1)C1=C(C(F)(F)F)OCCS1(=O)=O [Example 93] ?
Solution: 3.57

Problem: What about Cc1cc(-c2ccccc2NC(=O)C2=C(C(F)(F)F)OCC(C)S2)ccc1F (centres unmarked) [Example 5] ?
Solution: 3.98

Problem: What about O=C(Nc1ccc(F)cc1-c1cc(F)cc(F)c1)C1=C(C(F)(F)F)OCCS1 [Example 73] ?
Solution: 3.49
